Target: Leukotriene A-4 hydrolase (Homo sapiens)
Test: Binding affinity to human C-terminal his6-tagged/N-terminal T7 gene leader sequence-tagged LTA4H at 15 degC by ITC method
Assign pKd to each entry below.
Answers are plain numbers, as −log10 of the molar value.

Inquiry: Which value of pKd has been reported for Nc1nc(-c2ccc(Cc3ccccc3)cc2)cs1 in the records?
Reply text: 6.89

Inquiry: Could you share which pKd value was measured for C[C@H](CS)C(=O)N1CCC[C@H]1C(=O)O ?
Reply text: 5.20

---
Inquiry: What measured pKd goes with CN(C)CCOc1ccc(Oc2ccccc2)cc1 ?
Reply text: 7.22

###

Could you please report measured IC50 for the items listed next?
Target: Leukotriene A-4 hydrolase (Homo sapiens)
Sequence (P09960 whole entry): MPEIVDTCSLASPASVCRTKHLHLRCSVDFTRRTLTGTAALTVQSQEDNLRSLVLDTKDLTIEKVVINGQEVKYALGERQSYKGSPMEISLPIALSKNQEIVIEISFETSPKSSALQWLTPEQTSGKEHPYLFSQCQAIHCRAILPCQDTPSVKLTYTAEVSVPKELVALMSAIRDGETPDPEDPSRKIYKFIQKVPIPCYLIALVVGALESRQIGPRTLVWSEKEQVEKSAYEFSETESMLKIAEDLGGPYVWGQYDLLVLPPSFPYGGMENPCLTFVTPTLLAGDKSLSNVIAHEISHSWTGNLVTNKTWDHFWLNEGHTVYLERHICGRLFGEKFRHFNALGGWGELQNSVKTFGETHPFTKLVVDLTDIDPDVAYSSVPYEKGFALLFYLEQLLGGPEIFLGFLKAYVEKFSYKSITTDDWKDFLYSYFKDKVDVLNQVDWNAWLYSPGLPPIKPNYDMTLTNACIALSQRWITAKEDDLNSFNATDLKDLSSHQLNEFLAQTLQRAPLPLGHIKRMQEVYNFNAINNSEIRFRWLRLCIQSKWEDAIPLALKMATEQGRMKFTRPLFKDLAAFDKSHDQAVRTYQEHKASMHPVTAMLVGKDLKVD
Give bare numbers, in nM.

Inquiry: Need IC50 of C[C@H](CS)C(=O)N1CCC[C@H]1C(=O)O [CAPTOPRIL] , thanks.
Reply text: 3600

Now for another entry.
Inquiry: Name the recorded IC50 for Nc1nc(-c2ccc(Cc3ccccc3)cc2)cs1 .
Reply text: 400

Data credit: ChEMBL document CHEMBL3860073
